assay: Rat PK study (single IV and PO dose, plasma LC-MS/MS); type: in vivo, S-D rats; details: Sprague-Dawley (S-D), rat, plasma; S-D rats, PO 10 mg/kg
quantity measured: AUC(0-t) (ng·h/mL)
Give the value in ng·h/mL but do not write ng·h/mL after it.

Worked examples, 2 compounds total:
* COc1cc2c(cc1OCC1CC(OC)C1)C[C@@H](C(C)C)n1cc(C(=O)O)c(=O)cc1-2 (some centres unmarked) [Compound I-8] | 3030
* COc1cc2c(cc1O[C@@H]1CCOC1)C[C@@H](C(C)C)n1cc(C(=O)O)c(=O)cc1-2 [Compound I-2] | 1690

In: Please give the measured AUC(0-t) for this compound: COc1cc2c(cc1OC1CCCC1)C[C@@H](C(C)C)n1cc(C(=O)O)c(=O)cc1-2 [Compound I-10]
Out: 869

In: Same read-out for COCCCOc1cc2c(cc1OC)-c1cc(=O)c(C(=O)O)cn1[C@H](C(C)C)C2 [A, reference compound] ?
Out: 1760

In: Same read-out for COCC1(COc2cc3c(cc2OC)-c2cc(=O)c(C(=O)O)cn2[C@H](C(C)C)C3)COC1 [Compound I-7] ?
Out: 470

----------
test system: HBsAg; assay: HBsAg inhibition in HepG2.2.15 culture supernatant (ELISA); type: cell-based, HBV; settings: HepG2.2.15 cells, supernatant on day 8, ELISA; read-out: Activity in HBsAg inhibition, EC50
quantity measured: EC50 (nM)
Give the value in nM but do not write nM after it.

Worked examples, 3 molecules total:
* COc1cc2c(cc1OC1CCOCC1)CC(C(C)C)n1cc(C(=O)O)c(=O)cc1-2 (racemic) [Compound I-3-rac] | 7.04
* COc1cc2c(cc1O[C@@H]1CCOC1)CC(C(C)(C)C)n1cc(C(=O)O)c(=O)cc1-2 (mixture of isomers) [Compound I-28-rac] | 5.78
* COCC1(COc2cc3c(cc2Cl)-c2cc(=O)c(C(=O)O)cn2C(C(C)C)C3)CC1 (racemic) [Compound I-24-rac] | 5.78

In: Please give the measured EC50 for this molecule: COCC1(COc2cc3c(cc2OC)-c2cc(=O)c(C(=O)O)cn2C(C(C)(C)C)C3)CC1 (racemic) [Compound I-30-rac]
Out: 6.74

----------
Item-by-item account of Vd
Assay: Rat PK study (single IV and PO dose, plasma LC-MS/MS)
Format: in vivo, S-D rats
Conditions: Sprague-Dawley (S-D), rat, plasma; S-D rats, IV 2 mg/kg; read-out: Vdss
Description: […] S-D rats of Group A were given a single intravenous injection (IV) of 2 mg·kg^−1, respectively; S-D rats of Group B were given a single gavage administration (PO) of 10 mg·kg^−1, respectively. […] Concentrations of compounds in the plasma samples were analyzed using a LC-MS/MS method. The pharmacokinetic parameters were calculated using non-compartment model in Pharsight Phoenix 7.0 software. […]
Give the value in L/kg but do not write L/kg after it.

Worked examples, 4 compounds total:
* COCC1(COc2cc3c(cc2OC)-c2cc(=O)c(C(=O)O)cn2[C@H](C(C)C)C3)CC1 [Compound I-6] | 1.74
* COc1cc2c(cc1OCC1CC(OC)C1)C[C@@H](C(C)C)n1cc(C(=O)O)c(=O)cc1-2 (stereo partly drawn) [Compound I-8] | 1.05
* COCC1(COc2cc3c(cc2OC)-c2cc(=O)c(C(=O)O)cn2[C@H](C(C)C)C3)COC1 [Compound I-7] | 1.39
* COc1cc2c(cc1O[C@@H]1CCOC1)C[C@@H](C(C)C)n1cc(C(=O)O)c(=O)cc1-2 [Compound I-2] | 1.51

In: Please give the measured Vd for this compound: COc1cc2c(cc1OCCCC(C)=O)C[C@@H](C(C)C)n1cc(C(=O)O)c(=O)cc1-2 [Compound I-9]
Out: 0.942

In: Same read-out for COc1cc2c(cc1O[C@H]1C[C@H](OC)C1)C[C@@H](C(C)C)n1cc(C(=O)O)c(=O)cc1-2 [Compound I-5] ?
Out: 0.858

In: Same read-out for COc1cc2c(cc1C#CC1CC1)C[C@@H](C(C)C)n1cc(C(=O)O)c(=O)cc1-2 [Compound I-11] ?
Out: 1.37

In: Same read-out for COCCCOc1cc2c(cc1OC)-c1cc(=O)c(C(=O)O)cn1[C@H](C(C)C)C2 [A, reference compound] ?
Out: 1.17

In: Same read-out for COc1cc2c(cc1OC1CCCC1)C[C@@H](C(C)C)n1cc(C(=O)O)c(=O)cc1-2 [Compound I-10] ?
Out: 1.41
